Attribution: paper PMC6757289

- STUDY SYSTEM: SGK3 (Homo sapiens)
- Sequence (Q96BR1 whole entry): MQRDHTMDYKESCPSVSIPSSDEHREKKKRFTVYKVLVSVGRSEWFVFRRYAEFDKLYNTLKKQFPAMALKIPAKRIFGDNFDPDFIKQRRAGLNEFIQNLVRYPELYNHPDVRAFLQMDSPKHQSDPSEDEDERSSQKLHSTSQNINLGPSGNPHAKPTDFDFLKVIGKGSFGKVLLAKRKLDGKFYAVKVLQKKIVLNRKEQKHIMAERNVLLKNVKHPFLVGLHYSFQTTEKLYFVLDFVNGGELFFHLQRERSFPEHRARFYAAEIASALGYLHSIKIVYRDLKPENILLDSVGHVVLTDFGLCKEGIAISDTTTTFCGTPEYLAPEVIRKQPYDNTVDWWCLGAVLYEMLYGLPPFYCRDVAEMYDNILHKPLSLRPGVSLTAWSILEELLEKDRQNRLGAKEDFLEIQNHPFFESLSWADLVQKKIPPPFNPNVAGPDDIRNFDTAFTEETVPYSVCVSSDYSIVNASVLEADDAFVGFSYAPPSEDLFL
- PROTOCOL NOTES: SGK3 degradation in HEK293 cells, immunoblot
- Assay type: cell-based
- Set-up: reduced endogenous SGK isoform or S6K1 expression when administered to HEK293 cells for 48 h; endogenous in cells; host or cells: HEK293
- REPORTED CONDITIONS: HEK293, 48 h, 10 μM, Figure 2
We label by threshold. Values of remaining activity at 10 µM strictly beneath 30% are met. Values of 30% and up are not met.

Q. Is the reported remaining activity at 10 µM for Cc1ccc(F)c(S(=O)(=O)Nc2ccc(-c3nc(OC[C@H]4CN(CCOCCOCC(=O)N[C@H](C(=O)N5C[C@H](O)C[C@H]5C(=O)NCc5ccc(-c6scnc6C)cc5)C(C)(C)C)CCO4)c4cn[nH]c4n3)cc2)c1 [DAT5] strictly below 30%?
A. not met

Q. Is the reported remaining activity at 10 µM for Cc1ccc(F)c(S(=O)(=O)Nc2ccc(-c3nc(OC[C@H]4CN(CCOCCOCCOCCOCC(=O)N[C@H](C(=O)N5C[C@H](O)C[C@H]5C(=O)NCc5ccc(-c6scnc6C)cc5)C(C)(C)C)CCO4)c4cn[nH]c4n3)cc2)c1 [DAT6] strictly below 30%?
A. met

Q. Is the reported remaining activity at 10 µM for Cc1ccc(F)c(S(=O)(=O)Nc2ccc(-c3nc(OC[C@H]4CN(CCCCCCOCCCCCCOCC(=O)N[C@H](C(=O)N5C[C@H](O)C[C@H]5C(=O)NCc5ccc(-c6scnc6C)cc5)C(C)(C)C)CCO4)c4cn[nH]c4n3)cc2)c1 [DAT10] strictly below 30%?
A. met

Q. Is the reported remaining activity at 10 µM for Cc1ccc(F)c(S(=O)(=O)Nc2ccc(-c3nc(OC[C@H]4CN(CCOCCOCCOCC(=O)N[C@H](C(=O)N5C[C@H](O)C[C@H]5C(=O)NCc5ccc(-c6scnc6C)cc5)C(C)(C)C)CCO4)c4cn[nH]c4n3)cc2)c1 [DAT1] strictly below 30%?
A. not met

Q. Is the reported remaining activity at 10 µM for Cc1ccc(F)c(S(=O)(=O)Nc2ccc(-c3nc(OC[C@H]4CN(CCCCCCOCCOCCOCCOCC(=O)N[C@H](C(=O)N5C[C@H](O)C[C@H]5C(=O)NCc5ccc(-c6scnc6C)cc5)C(C)(C)C)CCO4)c4cn[nH]c4n3)cc2)c1 [DAT9] strictly below 30%?
A. met

Q. Is the reported remaining activity at 10 µM for Cc1ccc(F)c(S(=O)(=O)Nc2ccc(-c3nc(OC[C@H]4CN(CCCCCCOCCOCCOCC(=O)N[C@H](C(=O)N5C[C@H](O)C[C@H]5C(=O)NCc5ccc(-c6scnc6C)cc5)C(C)(C)C)CCO4)c4cn[nH]c4n3)cc2)c1 [SGK3-PROTAC1] strictly below 30%?
A. met

Q. Is the reported remaining activity at 10 µM for COc1ccc(Cl)c(S(=O)(=O)Nc2ccc(-c3nc(OC[C@H]4CN(CCCCCCOCCOCCOCCOCC(=O)N[C@H](C(=O)N5C[C@H](O)C[C@H]5C(=O)NCc5ccc(-c6scnc6C)cc5)C(C)(C)C)CCO4)c4c(C)n[nH]c4n3)cc2)c1 [DAT11] strictly below 30%?
A. met

Q. Is the reported remaining activity at 10 µM for Cc1ccc(F)c(S(=O)(=O)Nc2ccc(-c3nc(OC[C@H]4CN(CCOCCOCCOCCOCCOCC(=O)N[C@H](C(=O)N5C[C@H](O)C[C@H]5C(=O)NCc5ccc(-c6scnc6C)cc5)C(C)(C)C)CCO4)c4cn[nH]c4n3)cc2)c1 [DAT7] strictly below 30%?
A. met
